- SUBJECT OF TEST: T1, mRFP-GABARAPL1 (UniProt Q9H0R8 1-117)
- T1 construct: also called membrane-anchored GABARAPL1
- MEASUREMENT DESCRIPTION: recruitment of LIR-GFP or gProbe
- Set-up: unit not given here
- SETUP CONDITIONS: partners not purified
ENDPOINT LABEL: other
I only need the number, thanks.

# count of solved cases: 2
BINDER	other
QEQSEVDHGDFEMVSESMVLETAEN (domain or fragment, source: HKO HeLa cells, transfected, in cells; not shown: GFP, C-terminal, kept) [LIR(UBR4)-GFP]	2.81
SKNSSCDTDDFVLVPHNISSDHSCD (domain or fragment, source: HKO HeLa cells, transfected, in cells; not shown: GFP, C-terminal, kept) [LIR(ULK2)-GFP]	2.5

Tell me other reported for QKVRPQQEDEWVNVQYPDQPEEPPE (domain or fragment, source: HKO HeLa cells, transfected, in cells; not shown: GFP, C-terminal, kept) [LIR(PLEKHM1)-GFP] 1.86
